experiment-notes: Quantitative High-Throughput drug screen in 47 multiple myeloma cell lines against the NCATS MIPE library collection: KMS34_JCRB cell viability assay (AID 1918985); also: nearly all actives have a fitted effect of over 40% in size; also: potency is read from the fitted curve at half-maximal effect
experimental-parameters: KMS34 myeloma viability, CellTiter-Glo ATP luminescence, 48 h; series mostly up to 45.8 µM
Inconclusive results are not listed. The source made the active and inactive calls. Calls follow the shape of the dose curve; as a rule, active = well fitted cell-killing curve with a large enough effect; inconclusive = small, poorly fitted or top-dose-only effect, or effect the other way; inactive = no such curve, though single readings can be large or run the other way.
property-name: Potency

Solved cases below.
CC(C)(OCc1nn(Cc2ccccc2)c2ccccc12)C(=O)O :: inactive
CC1C(=O)OC2C(O)C34C5CC(C(C)(C)C)C36C(OC(=O)C6O)OC4(C(=O)O5)C12O (configuration not stated) :: 23.5 µM (active)
CC(C)(O)CC(=O)NCCn1ccc2ncnc(Nc3ccc(Oc4cccc(C(F)(F)F)c4)c(Cl)c3)c21 :: 23.5 µM (active)
CCc1cc(-c2n[nH]c(C)c2-c2ccc3c(c2)OCCO3)c(O)cc1O :: 3.32 µM (active)
NCC1CCC(C(=O)O)CC1 (configuration not stated) :: inactive
CC(NCCc1ccc(O)cc1)C(O)c1ccc(O)cc1 (configuration not stated) :: inactive
COc1ccc2c(c1)c(C1=C(c3c[nH]c4ccccc34)C(=O)NC1=O)cn2CCCN(C)C :: 14.8 µM (active)
CC1CCN(c2cc(N3CCN(C)CC3)ccc2NC(=O)c2cc(C#N)c[nH]2)CC1 :: 20.9 µM (active)
O=C(Nc1cccc(Cl)c1)Nc1ncc(CCNc2ncnc3ccsc23)s1 :: 6.62 µM (active)
C[C@@H](NC(=O)c1ncnc(N)c1Cl)c1ncc(C(=O)Nc2cc(C(F)(F)F)c(Cl)cn2)s1 :: 4.18 µM (active)

Req: Consider the compound "CC(=O)OCC(=O)[C@@]12OC(C)(C)O[C@H]1C[C@H]1[C@@H]3C[C@H](F)C4=CC(=O)C=C[C@]4(C)[C@@]3(F)[C@@H](O)C[C@@]12C" . State its measured Potency.
Resp: inactive

Req: Consider the compound "CN(C)CCOc1ccc(-c2nc(-c3ccc4c(c3)CCC4=NO)c(-c3ccncc3)[nH]2)cc1" . State its measured Potency.
Resp: 13.2 µM (active)

Req: Consider the compound "CN(C)CCN(Cc1ccc(Cl)cc1)c1ccccn1" . State its measured Potency.
Resp: inactive

Req: Consider the compound "CC(O)=C(C#N)C(=O)Nc1ccc(C(F)(F)F)cc1" . State its measured Potency.
Resp: 18.7 µM (active)
